result-type: melting point

Check out these entries, answers already filled in.
INSERT INTO assay_data (compound, result_type, endpoint_result) VALUES
  ('CCNC(=O)c1ccccc1Nc1nc(Nc2ccc3c(c2)CCN(CCOC)CC3)ncc1Cl', 'melting point', '150 to 184 °C'),
  ('COc1ccc(-c2cc(Cl)cc3c2OC(C(F)(F)F)C(C(=O)O)=C3)cc1 (configuration not stated)', 'melting point', '194 to 196 °C'),
  ('OC1(c2ccc3c(c2)OCO3)CCN(Cc2ccccc2)CC1', 'melting point', '144 °C'),
  ('CCOC(=O)c1ccc(N=C(Nc2ccc(C(=O)OCC)cc2)c2ccc(C)cc2)cc1', 'melting point', '246 to 260 °C'),
  ('COc1ncc(C(F)(F)F)cc1-c1cccn2nc(Nc3ccc(C4CCNCC4)cc3)nc12', 'melting point', '106 to 108 °C');

Task: Looking for the measured melting point of O=C(OC1CCN(Cc2ccc(Cl)cc2)CC1)c1ccc(Cl)cc1 , can you help?
Output: 67 to 69 °C

Task: Looking for the measured melting point of O=C1CCCN1CCCn1cnc2cnc3cc(-c4ccccc4)ccc3c21 , can you help?
Output: 138 to 141 °C

Task: Looking for the measured melting point of O=[N+]([O-])c1ccc(Oc2ccc(Cl)cc2Cl)cc1Oc1ccc(Cl)cc1Cl , can you help?
Output: 91 to 93 °C

Task: Looking for the measured melting point of Cc1ccc(N2CCC(CCOc3ccc(-c4nc(C(C)C)no4)cc3)CC2)nn1 , can you help?
Output: 135 °C

Task: Looking for the measured melting point of CS(=O)(=O)N(c1cc2c(cc1Oc1ccccc1)C(C#N)CC2)S(C)(=O)=O (configuration not stated) , can you help?
Output: 200 °C

###

Measured melting point accompanies every entry in the list below.

INSERT INTO results (compound, endpoint_result) VALUES
  ('CCN(CC)CCOC(=O)C1=C(C)NC(C)=C(c2nnco2)C1c1cccc(Cl)c1Cl (stereo unspecified)', '142 to 144 °C'),
  ('O=C(O)c1ccccc1OCCN1CCC(c2cn(Cc3ccc(Cl)s3)c3ccccc23)CC1', '178 to 179 °C'),
  ('CCCc1cc(C(O)=S)cc(N)c1-c1ccccc1', '190 to 191 °C'),
  ('CCc1ccc2c(c1)OC(C(F)(F)F)C(C(=O)O)=C2 (stereo unspecified)', '167 to 169 °C'),
  ('CCS(=O)(=O)NCC(O)(Cn1cncn1)c1ccc(Cl)cc1Cl (stereo unspecified)', '144 to 145 °C');

Task: Looking for the measured melting point of CN(C)c1ccc(/C=C/c2c(Cl)cccc2Cl)cc1 , can you help?
Output: 96 to 97 °C

###

Measured melting point accompanies every entry in the list below.

Check out these entries, answers already filled in.
INSERT INTO measurements (compound, endpoint_result) VALUES
  ('COc1cc2c3c([nH]c2cc1O)-c1ccccc1C3=O', '> 260 °C'),
  ('O=C1N(O)CCC12CCOc1ccc(F)cc12 (configuration not stated)', '208 to 209 °C'),
  ('CCOC(=O)c1cn(-c2nc3ccccc3[nH]2)cn1', '252 to 253 °C'),
  ('COc1ccc(Nc2nc(Nc3ccc(OC)c(F)c3)nc(OCC3CCCCC3)n2)cc1F', '181 °C'),
  ('COCCN1CCN(C(C)c2ccc(-c3ccc(F)cc3)cc2)CC1 (configuration not stated)', '61 to 62 °C'),
  ('COC1=CC(N)C(C)(Cl)C=C1 (configuration not stated)', '83 to 85 °C'),
  ('Clc1ccc(Nc2nnc(OCc3ccncc3)c3ccccc23)cc1', '139 to 141 °C'),
  ('O=C(O)C[C@H]1C[C@H](C(=O)O)Nc2cc(Cl)cc(Cl)c21 (relative stereo)', '229 to 231 °C');

Task: Looking for the measured melting point of N#CCCNC(=O)c1cncc(-c2cccc3nn(Cc4cccc(C(F)(F)F)c4)cc23)c1 , can you help?
Output: 192 to 193 °C

Task: Looking for the measured melting point of CC(=O)c1ccc(COC(=O)N2CCN(CC3(C)Cn4cc([N+](=O)[O-])nc4O3)CC2)cc1 (configuration not stated) , can you help?
Output: 101 to 102 °C

Task: Looking for the measured melting point of CC(Br)c1ncnc(Sc2ccc(Cl)cc2)c1F (configuration not stated) , can you help?
Output: 86.2 to 87.5 °C

Task: Looking for the measured melting point of Cc1ccc(N2C(=O)C(O)=C(C(=O)c3ccc(C(C)C)cc3)C2c2ccc(OC(F)(F)F)cc2)nn1 (configuration not stated) , can you help?
Output: 221 °C

Task: Looking for the measured melting point of C=CCOC(=O)C(C(=O)NC1C(=O)N2C1SC(C)(C)C2C(=O)OCC=C)=C1SCCS1 (configuration not stated) , can you help?
Output: 76 to 77 °C

Task: Looking for the measured melting point of COc1cc(C(=O)O)ccc1Cc1cn(C)c2ccc(CC(C)NC(=O)N(C)C)cc12 (configuration not stated) , can you help?
Output: 162 to 163 °C
